system tested: IGF1R (human)
test name: radiometric filter-binding kinase assay
test parameters: compound 100.0 µM; ATP 5 µM
endpoint: inhibition (%)
Numeric only. Scale: %

Example cases with answers are listed next.
>>> df
                                compound  unit_annotation  measurement
0  CC(C)(C)Nc1c(COCc2ccccc2)nc2[nH]cnn12                %            0
1    CC(=O)Nc1nc2cnc(-c3c(C)cccc3C)cn2n1                %            0
2        CC(=O)Nc1nc2cnc(-c3ccccc3)cn2n1                %           11

Ask | Reported inhibition, compound O=c1cc(-c2ccccc2F)nc2[nH]ccn12 : ____
Reply | 28

Ask | // query inhibition value for entry CC(C)(C)Nc1c(C2CC2)nc2[nH]cnn12
Reply | 0

Ask | Given Nc1cnc2c(-c3c(F)cccc3F)cccn2c1=O , state its recorded inhibition.
Reply | 85

Ask | I'd like to know its inhibition. The compound in question is Nc1nc2cnc(-c3ccccc3)cn2n1
Reply | 91

Ask | For the compound shown here, O=C(Nc1cnc2[nH]cnn2c1=O)c1ccccc1 , give the reported inhibition.
Reply | 0

Ask | What inhibition value was documented for this compound, CC1CN(c2nc3ccccn3c(=O)c2N)CC(C)O1 (stereo not given) ?
Reply | 0

Ask | Look up inhibition: O=C(c1cccc(-c2cc3c(=O)[nH]cnc3s2)c1)N1CCOCC1
Reply | 0

Ask | Name the reported inhibition value associated with the compound O=c1c(NC(=S)NCc2ccccc2)cnc2[nH]ccn12
Reply | 0

Ask | Any idea what inhibition was measured for Cc1cccc(C)c1-c1cn2nc(N)nc2cn1 ?
Reply | 5

Ask | Which inhibition value is on record for O=C(Nc1cnc2[nH]ccn2c1=O)c1ccccc1 ?
Reply | 0

Ask | Look up inhibition: COc1ccc(NC(=S)Nc2cnc3[nH]cnn3c2=O)cn1
Reply | 0

Ask | Need inhibition of COc1ccc(-c2cc3c(=O)[nH]cnc3s2)cc1OC , thanks.
Reply | 0
